TESTED_SYSTEM: STAT3(D661Y)-nonphosphorylated (Homo sapiens, UniProt P40763, D661Y)
Construct: made in house; host or cells: HEK293 (transient transfection), unpurified extract, dephosphorylated by endogenous phosphatases
Sequence (P40763 whole entry D661Y): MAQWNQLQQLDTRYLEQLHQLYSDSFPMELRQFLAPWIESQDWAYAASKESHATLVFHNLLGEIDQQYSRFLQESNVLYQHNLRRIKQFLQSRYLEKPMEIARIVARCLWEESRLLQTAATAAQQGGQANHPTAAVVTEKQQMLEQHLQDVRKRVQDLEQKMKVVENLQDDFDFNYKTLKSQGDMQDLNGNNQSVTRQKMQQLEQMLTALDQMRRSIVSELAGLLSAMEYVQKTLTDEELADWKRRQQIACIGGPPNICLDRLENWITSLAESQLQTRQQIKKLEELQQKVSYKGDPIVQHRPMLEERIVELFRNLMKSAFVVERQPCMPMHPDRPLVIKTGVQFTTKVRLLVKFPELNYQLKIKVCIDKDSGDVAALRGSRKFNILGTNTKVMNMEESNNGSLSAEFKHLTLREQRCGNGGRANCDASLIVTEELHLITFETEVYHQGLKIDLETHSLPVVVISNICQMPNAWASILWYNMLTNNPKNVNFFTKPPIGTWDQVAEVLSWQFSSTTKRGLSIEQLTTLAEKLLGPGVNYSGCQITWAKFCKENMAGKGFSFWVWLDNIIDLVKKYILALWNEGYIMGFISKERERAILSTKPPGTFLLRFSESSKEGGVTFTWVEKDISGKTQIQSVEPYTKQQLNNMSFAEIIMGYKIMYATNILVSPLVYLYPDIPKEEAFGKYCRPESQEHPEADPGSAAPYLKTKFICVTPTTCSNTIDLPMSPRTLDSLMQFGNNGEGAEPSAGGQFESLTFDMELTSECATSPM
ASSAY_INFO: biochemical
Assay type: binding
ASSAY_SETUP: read-out: percent of DMSO vehicle control
Non-standard residues stand in square brackets, D forms with d. Residues, ends and D or L forms follow the SMILES beside them. *: point of attachment. pY = N[C@@H](Cc1ccc(OP(=O)(O)O)cc1)C(=O)O; Caffeoyl = O=C(/C=C/c1ccc(O)c(O)c1)*
REPORTED_ENDPOINT: percent of DMSO vehicle control at 10 µM (%)
Respond with the bare value in %.

Look at this molecule and give its reported percent of DMSO vehicle control at 10 µM. "CC(=O)N1CC[C@H]2CC[C@@H](C(=O)N[C@@H](CCC(N)=O)C(=O)NC(c3ccccc3)c3ccccc3)N2C(=O)[C@@H](NC(=O)c2cc3cc(C(F)(F)P(=O)(O)O)ccc3[nH]2)C1"
0.6

Look at this molecule and give its reported percent of DMSO vehicle control at 10 µM. NC(=O)CC[C@H](NC(=O)[C@@H]1CC[C@@H]2CCN(C(=O)CCCCCC#Cc3cccc4c3CN(C3CCC(=O)NC3=O)C4=O)C[C@H](NC(=O)c3cc4cc(C(F)(F)P(=O)(O)O)ccc4[nH]3)C(=O)N21)C(=O)NC(c1ccccc1)c1ccccc1 (stereo partly shown)
0

Look at this molecule and give its reported percent of DMSO vehicle control at 10 µM. "CC(=O)N[C@@H](Cc1ccc(CP(=O)(O)O)cc1)C(=O)NC1(C(=O)N[C@@H](CC(N)=O)C(=O)NCCCc2c(O)ccc3ccccc23)CCCCC1"
97.4

Look at this molecule and give its reported percent of DMSO vehicle control at 10 µM. CC[C@H](C)[C@H](NC(=O)[C@H](CCC(=O)O)NC(=O)[C@H](CCC(=O)O)NC(=O)[C@H](Cc1ccc(OP(=O)(O)O)cc1)NC(=O)/C=C/c1ccc(O)c(O)c1)C(=O)N[C@@H](CCC(=O)O)C(=O)O [Caffeic acid-pYEEIE] (Caffeoyl-[pY]EEIE-OH)
108

* * *

TESTED_SYSTEM: GRB2 (Homo sapiens)
Construct: the DNA-tagged SH2 domain concentrations used in this study were <0.1 nM; made in house; host or cells: HEK293 (transient transfection; unpurified extract)
Sequence (P62993 60-152 limits assumed): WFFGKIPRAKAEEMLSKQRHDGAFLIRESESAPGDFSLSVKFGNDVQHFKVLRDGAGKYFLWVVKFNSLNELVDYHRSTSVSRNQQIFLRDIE
ASSAY_INFO: biochemical
Assay type: binding
ASSAY_SETUP: dose-response; read-out: KD
REPORTED_ENDPOINT: Kd (µM)
Respond with the bare value in µM.

Look at this molecule and give its reported Kd. "C/C(=C\C(=O)N[C@H](C(=O)N1CCC[C@H]1C(=O)N(c1ccccc1)c1ccc(I)cc1)C(C)(C)C)c1ccc(OP(=O)(O)O)cc1"
6.04

* * *

For each record, write down the corresponding remaining activity at 10 µM.
TESTED_SYSTEM: PIK3R1(SH2dom.C-term.) (Homo sapiens)
Construct: SH2dom.C-term. denotes SH2 domain closest to C-terminus of protein; made in house; host or cells: HEK293 (transient transfection, unpurified extract)
Sequence (P27986 624-718 limits assumed): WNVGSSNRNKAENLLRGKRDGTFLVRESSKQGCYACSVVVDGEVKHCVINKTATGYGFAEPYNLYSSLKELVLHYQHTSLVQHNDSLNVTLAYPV
ASSAY_INFO: biochemical
Assay type: binding
ASSAY_SETUP: primary screen, 10 μM; read-out: percent of DMSO vehicle control
Respond with the bare value in %.

PIK3R1(SH2dom.C-term.) (Homo sapiens) / remaining activity at 10 µM / O=C(COc1ccc2cc(C(=O)Nc3ccccc3)ccc2c1)NCc1ccc(OP(=O)(O)O)c(OP(=O)(O)O)c1 [Stafib-1] : value?
85.3

PIK3R1(SH2dom.C-term.) (Homo sapiens) / remaining activity at 10 µM / C/C(=C\C(=O)N[C@H](C(=O)N1CCC[C@H]1C(=O)N(c1ccccc1)c1ccc(I)cc1)C(C)(C)C)c1ccc(OP(=O)(O)O)cc1 [STAT6-IN-1] : value?
12.3

PIK3R1(SH2dom.C-term.) (Homo sapiens) / remaining activity at 10 µM / CC(C)(C)[C@H](NC(=O)/C=C/c1ccc(OP(=O)(O)O)cc1)C(=O)N1CCC[C@H]1C(=O)N(c1ccccc1)c1ccc(I)cc1 [STAT6-IN-3] : value?
32.6

PIK3R1(SH2dom.C-term.) (Homo sapiens) / remaining activity at 10 µM / O=C(CCl)Nc1cccc(CNC(=O)[C@H](Cc2ccc(OP(=O)(O)O)cc2)NC(=O)Cc2ccc(F)cc2)c1 [MN551] : value?
52.4

Data provenance is paper PMC12951562.
